For each entry below, report its log10 of TGI value.
# System: 786-0 renal
# Protocol Summary: NCI tumour cell line growth inhibition, 48 h
# values: log10(TGI), units µM

# annotated cases, reported log10 of TGI shown
Fc1[nH]nc2ccc([C@@H]3Nc4ccc5[nH]ncc5c4[C@H]4C5CCC(C5)[C@@H]34)cc12 (some centres not stated) : 1.19
NS(=O)(=O)OC[C@@H]1C[C@@H](n2ccc3c(NC4CCc5ccccc54)ncnc32)C[C@@H]1O (some centres not stated) : 1.47
CNC(=S)OCCC(C)CCCC(C)C (configuration not stated) : 1.49

Each of the following entries comes with a recorded value; kindly state log10 of TGI for each.
1. CCCCC#C[I+]c1ccccc1
2. COc1cc2c(cc1OCCCCN1CCN(CC(=O)Nc3ccc(Cl)cc3C(=O)c3ccccc3Cl)CC1)N=CC1CCCN1C2=O (configuration not stated)

## Output
1: 1.46; 2: -0.34

---

# Test system: OVCAR-4 ovarian
# Protocol Summary: NCI tumour cell line growth inhibition, 48 h
Result Type: TGI

# annotated cases, reported TGI shown
COC(CCC[N+](C)(C)C)CC[N+](C)(C)C (stereo not drawn) : > 100 µM
CN1CCc2cc(N)cc3c2C1Cc1ccc(O)c(O)c1-3 (stereo not drawn) : > 100 µM

# ---- query molecule ----
## Input Fill in TGI for record CC(C)=CCC\C(C)=C/C=C/C(C)=C\C=C\C(C)=C/C=C/C=C(C)\C=C\C=C(C)/C=C/C=C(/C)CCC=C(C)C
## Output > 100 µM

---

# System: U251 CNS
# Protocol Summary: NCI tumour cell line growth inhibition, 48 h
Result Type: TGI (µM)
Give bare numbers, in µM.

CN(C)c1ccc(/C=C\C2=[N+](C)c3ccccc3C2(C)C)cc1 : 17.4
Nc1nc(-n2c(-c3ccccc3)nc3c(Br)cc(Br)cc3c2=O)nnc1-c1cccc(Cl)c1Cl : 27.1
CCOC1Oc2ccccc2C(=O)/C1=C/Nc1ccc(C(C)=O)cc1 (stereo unspecified) : 67.5
O=C(Nc1ccc(F)cc1)Nc1ccc(Cl)c([N+](=O)[O-])c1 : 12.5

## Input Fill in TGI for record Cc1ccc(NC(=O)Nc2ccc(-c3cccnc3)cc2N2CCC(CO)CC2)cc1
## Output 6.81

---

# Tested on: DU-145 prostate
# Protocol Summary: NCI tumour cell line growth inhibition, 48 h; in the data active = GI50 below about 0.43 µM; inactive = the rest
Would you mind answering with one of these outcomes? yes = active, no = inactive

Past entries and their recorded results:
O=C(Nc1ccc(-n2ccc3c(NC(=O)c4ccccc4)nccc32)cc1)c1ccc(Cl)c(C(F)(F)F)c1 : no
COc1cccc(-c2cc(-c3cccc(NS(C)(=O)=O)c3)nc(N)c2C#N)c1O : yes
CCN1/C(=C\c2cc[n+](CC)c3ccccc23)C=Cc2ccccc21 : yes
Fc1[nH]nc2ccc([C@@H]3Nc4ccc5[nH]ncc5c4[C@H]4C5CCC(C5)[C@@H]34)cc12 (some centres not stated) : no
Cn1cc(C2=C(c3c4n(c5ccccc35)CCCCC4)C(=O)NC2=O)c2ccccc21 : no

## Input Hi team, can someone confirm the assay call for COc1cc2c(cc1OCCCCN1CCN(CC(=O)Nc3ccc(Cl)cc3C(=O)c3ccccc3Cl)CC1)N=CC1CCCN1C2=O (configuration not stated) ?
## Output yes

## Input Hi team, can someone confirm the assay call for Cc1ccnc2c1ccc1c(C)ccnc12 ?
## Output no

---

# System: ACHN renal
# Protocol Summary: NCI tumour cell line growth inhibition, 48 h
For each entry below, report its TGI value.
One number for each entry, in µM.

# annotated cases, reported TGI shown
OCc1cc2ccccc2c2c3c(ccc12)OCO3 : 141
FC(F)(F)c1cccc(Nc2nc(-c3ccccc3)nc3ncccc23)c1 : 11.4
Fc1ccc(NC(=S)SCc2ccc3c(c2)OCO3)cc1F : 64.4
COC(=O)c1cc(=O)nc2sc3cccc(C)c3n12 : 42.8
C1=C2/CC[C@H](Sc3ccccc3)C2C2(CCCCC/1)OCCO2 (stereo partly specified) : 85.9

Each of the following entries comes with a recorded value; kindly state TGI for each.
1. Cc1ccsc1C(=S)Nc1ccc(Cl)c(/C=N/OC(C)(C)C)c1
2. CC(=O)OC1OC([C@@H]2c3cccc(O)c3C(=O)c3c(O)cc(C)cc32)C(O)C(O)C1O (stereo partly specified)
3. O=C1c2ccccc2-c2c1c1ccccc1c(=O)n2CCNCCNCCNCCn1c2c(c3ccccc3c1=O)C(=O)c1ccccc1-2
4. Cc1cc(-c2nc(C(=O)Nc3cc4oc(N5CCOCC5)nc4nc3N3CC[C@@H](O)C3)co2)ccn1

## Output
[75.7, 0.282, 0.555, 93.7]

---

# Test system: MCF7 breast
# Protocol Summary: NCI tumour cell line growth inhibition, 48 h; in the data active = GI50 below about 0.43 µM; inactive = the rest
Would you mind answering with one of these outcomes? active, inactive

Past entries and their recorded results:
Fc1[nH]nc2ccc([C@@H]3Nc4ccc5[nH]ncc5c4[C@H]4C5CCC(C5)[C@@H]34)cc12 (some centres undefined) : active
C=CC(=O)Nc1cc(Nc2ncc(C(=O)OC(C)C)c(-c3cn(C)c4ccccc34)n2)c(OC)cc1N(C)CCN(C)C : inactive
Nc1c(C(=O)c2cccc(CCS(N)(=O)=O)c2)cnn1-c1ccc(F)cc1 : inactive

In the following, a different compound is considered.
## Input Hi team, can someone confirm the assay call for Nc1ccccc1C#C/C=C\C#Cc1ccccc1OC(F)(F)F ?
## Output inactive

---

For each entry below, report its TGI value.
# Test system: DMS 114 small cell lung
# Protocol Summary: NCI tumour cell line growth inhibition, 48 h

# annotated cases, reported TGI shown
Cc1cc(N(CCC#N)CCC#N)ccc1N=Nc1ccc(S(N)(=O)=O)cc1 : > 100 µM
CCC[CH2][Sn]([CH2]CCC)([S]c1cccc2cccnc12)[S]c1cccc2cccnc12 : 0.319 µM

# ---- query compound ----
## Input Fill in TGI for record O=C(O)CCC(NC(=O)c1ccc(Nc2nc3ccccc3nc2-c2cccs2)cc1)C(=O)O (stereo not drawn)
## Output > 100 µM

---

# Tested on: RXF 393 renal
# Protocol Summary: NCI tumour cell line growth inhibition, 48 h
Result Type: GI50

# annotated cases, reported GI50 shown
O=C1NC(=NCCc2cccc(F)c2)S/C1=C\c1ccc2ncccc2c1 : 4400 nM
COC(=O)/C=C1\S/C(=N\NC(=O)c2cc3ccc2/C=C\c2ccc(cc2)/C=C\3)N(c2ccccc2)C1=O : 1520 nM

## Input Fill in GI50 for record Cc1ccc(NC(=O)Nc2ccc(-c3cccnc3)cc2N2CCC(CO)CC2)cc1
## Output 2180 nM

---

# Test system: MCF7 breast
# Protocol Summary: NCI tumour cell line growth inhibition, 48 h
Result Type: TGI

Cc1nc2n(c1/C=C1/C(=O)Nc3cccc(Cl)c31)CCS2 : > 100 µM

Each of the following entries comes with a recorded value; kindly state TGI for each.
1. Nc1ccccc1C#C/C=C\C#Cc1ccccc1OC(F)(F)F
2. COc1ccc(-c2cc(O)c3nc4ccccc4n3c2)cc1

## Output
> 100 µM
> 100 µM

Each of the following entries comes with a recorded value; kindly state TGI for each.
1. N#Cc1c(-c2ccccc2)/c(=C\Nc2cccc(C(F)(F)F)c2)c(=O)n2c1nc1ccccc12
2. CC(C)=CCC\C(C)=C/C=C/C(C)=C\C=C\C(C)=C/C=C/C=C(C)\C=C\C=C(C)/C=C/C=C(/C)CCC=C(C)C
3. c1csc(-c2ccc(-c3cccc4nsnc34)s2)c1
4. COc1cc(C(=O)N(C(=S)OCc2ccccn2)c2ccccc2)cc(OC)c1OC
5. COC(=O)CC[N+]1=CCC(c2ccccc2)(c2ccccc2)O1
6. Nc1nc(-n2c(-c3ccccc3)nc3c(Br)cc(Br)cc3c2=O)nnc1-c1cccc(Cl)c1Cl
7. COC(=O)c1c(C)cccc1C1CN=NC12Cc1ccc(C)cc1C2=O (stereo unspecified)
8. CC(=O)O[C@@H]1[C@H](C(C)C)[C@@H](OC(C)=O)C/C(C)=C/CC[C@]2(C)O[C@@H]12

## Output
["> 100 µM", "> 100 µM", "> 100 µM", "> 100 µM", "> 100 µM", "> 100 µM", "> 100 µM", "> 100 µM"]

---

For each entry below, report its TGI value.
# Test system: OVCAR-8 ovarian
# Protocol Summary: NCI tumour cell line growth inhibition, 48 h
One number for each entry, in µM.

# annotated cases, reported TGI shown
Cc1cnc(NCCCN(C)C)c2c1[nH]c1ccc3cc(O)ccc3c12 : 1.96
FC(F)(F)c1cccc(Nc2nc(-c3ccccc3)nc3ncccc23)c1 : 18.2
CN(C)C(=O)O/N=C1/C(c2c(O)[nH]c3ccccc23)=Nc2ccccc21 : 66.1

## Input Fill in TGI for record OCCN(CCO)c1ncnc2c1ncn2Cc1ccc(CCl)cc1
## Output 31.7

---

# Tested on: NCI-H460 lung
# Protocol Summary: NCI tumour cell line growth inhibition, 48 h
Result Type: TGI

# annotated cases, reported TGI shown
O=C1/C(=C/c2ccc(O)c(O)c2)CCC/C1=C\c1ccc(O)c(O)c1 : 20.1 µM
CCN(CC)N=Nc1c(C(N)=O)n[nH]c1C : > 100 µM
C#CCNC(CS)C(=O)O (stereo not drawn) : > 100 µM
C=C(C)C(=O)OC1C/C(CO)=C\C(O)C/C(C)=C/C2OC(=O)C(=C)C21 (stereo not drawn) : 35 µM
O=c1c2cc([N+](=O)[O-])cnc2sn1-c1ccc([N+](=O)[O-])cc1 : > 100 µM
[N-]=[N+]=NC[C@H]1OCO[C@H](CN=[N+]=[N-])[C@@H](OCCOCCCl)[C@@H]1OCCOCCCl : > 100 µM
CNS(=O)(=O)NNS(=O)(=O)c1ccccc1 : > 100 µM
CC(=O)O[C@@H]1[C@H](C(C)C)[C@@H](OC(C)=O)C/C(C)=C/CC[C@]2(C)O[C@@H]12 : > 100 µM
O=C1NC(=NCCc2cccc(F)c2)S/C1=C\c1ccc2ncccc2c1 : > 25 µM
CC(C)(C)OC(=O)N[C@H]1CCN(C2CCCCC2)C1=O : > 100 µM

Each of the following entries comes with a recorded value; kindly state TGI for each.
1. O=C1CCCSC(=O)N1Cc1ccccc1
2. COC1/C=C/OC2(C)Oc3c(C)c(O)c4c(O)c(c(/C=N/Nc5ccc([N+](=O)[O-])cc5[N+](=O)[O-])c(O)c4c3C2=O)NC(=O)C(C)=C/C=C/C(C)C(O)C(C)C(O)C(C)C(OC(C)=O)C1C (stereo not drawn)
3. NC1=NCCC1(c1ccccc1)c1ccccn1 (stereo not drawn)

## Output
> 100 µM
14.7 µM
> 100 µM
